Test: Tissue distribution and dose recovery (mass balance) of FK228 in the rat
Assay type: in vivo
Conditions: male, Sprague-Dawley, urine, intravenous, 2 mg/kg, n=6, read-out: dose recovery from 24 hour urine
propertyLabel: dose excreted (%)
# value in %; strip the unit string

### Prompt Which measured dose excreted value corresponds to C/C=C1\NC(=O)[C@H]2CSSCC/C=C/[C@H](CC(=O)N[C@H](C(C)C)C(=O)N2)OC(=O)[C@H](C(C)C)NC1=O [FK228] ?
### Response 5.9

---

Assay: Rat pharmacokinetics of FK228
Format: in vivo
Conditions: male, Sprague-Dawley, plasma, iv, 2 mg/kg, I.v. bolus (n = 6)
propertyLabel: Cmax (nM)
# value in nM; strip the unit string

### Prompt Which measured Cmax value corresponds to C/C=C1\NC(=O)[C@H]2CSSCC/C=C/[C@H](CC(=O)N[C@H](C(C)C)C(=O)N2)OC(=O)[C@H](C(C)C)NC1=O ?
### Response 490

---

Assay: Rat pharmacokinetics of FK228
Format: in vivo
Conditions: male, Sprague-Dawley, plasma, iv, I.v. bolus with DEM pretreatment (n = 5), read-out: Cltotal
propertyLabel: clearance
Respond with a number, then the unit of measure.

### Prompt Which measured clearance value corresponds to C/C=C1\NC(=O)[C@H]2CSSCC/C=C/[C@H](CC(=O)N[C@H](C(C)C)C(=O)N2)OC(=O)[C@H](C(C)C)NC1=O ?
### Response 276 mL/min

---

Experiment: Distribution of FK228 and metabolites between plasma and RBC after rat whole blood incubation
Format: in vitro ADME, rat
Conditions: FK228 100 μg/mL, rat whole blood, 37° C., 60 min
Procedure: After centrifugation, the plasma was removed and the RBC fraction was washed 8 times with 2 mL saline each. […] The RBC debris was further washed with 1 mL acetonitrile each 8 times. The blood was centrifuged to remove plasma. To the RBC fraction was added blank rat plasma to restore the initial volume, and the mixture was homogenized by a glass tissue grinder (400 strokes). The plasma and RBC homogenates were analyzed by ESI ion-trap LC-MS. […]
propertyLabel: detection in plasma fraction

CC(C)C1NC(=O)CC(/C=C/CCS)OC(=O)C(C(C)C)NC(=O)C2NC(=O)C(CSC2C)NC1=O (stereo not shown) [metabolite B]; detected
CC(C)C1NC(=O)CC(/C=C/CCS)OC(=O)C(C(C)C)NC2(O)SCC(NC1=O)C(=O)NC2C(C)SCC(NC(=O)CCC(N)C(=O)O)C(=O)NCC(=O)O (stereo not shown) [metabolite F]; detected
CC(C)C1NC(=O)CC(/C=C\CCSSCC(NC(=O)CCC(N)C(=O)O)C(=O)NCC(=O)O)OC(=O)C(C(C)C)NC(=O)C2NC(=O)C(CSC2C)NC1=O (stereo not shown) [metabolite D]; detected

---

Assay: Rat pharmacokinetics of FK228
Type: in vivo
Settings: male, Sprague-Dawley, plasma, iv, I.v. bolus with CsA pretreatment (n = 3)
propertyLabel: AUC(0-inf) (µM·h)
# value in µM·h; strip the unit string

### Prompt Which measured AUC(0-inf) value corresponds to C/C=C1\NC(=O)[C@H]2CSSCC/C=C/[C@H](CC(=O)N[C@H](C(C)C)C(=O)N2)OC(=O)[C@H](C(C)C)NC1=O ?
### Response 0.0667

---

Assay: Rat pharmacokinetics of FK228
Format: in vivo
Conditions: male, Sprague-Dawley, plasma, iv, I.v. bolus with DEM pretreatment (n = 5)
propertyLabel: AUC(0-inf) (µM·h)
# value in µM·h; strip the unit string

### Prompt Which measured AUC(0-inf) value corresponds to C/C=C1\NC(=O)[C@H]2CSSCC/C=C/[C@H](CC(=O)N[C@H](C(C)C)C(=O)N2)OC(=O)[C@H](C(C)C)NC1=O ?
### Response 0.0903

---

Test: Rat pharmacokinetics of FK228
Type: in vivo
Settings: male, Sprague-Dawley, plasma, iv, I.v. infusion (n = 6), read-out: Vdss
propertyLabel: Vd (L/kg)
# value in L/kg; strip the unit string

### Prompt Which measured Vd value corresponds to C/C=C1\NC(=O)[C@H]2CSSCC/C=C/[C@H](CC(=O)N[C@H](C(C)C)C(=O)N2)OC(=O)[C@H](C(C)C)NC1=O ?
### Response 11.8

---

Experiment: Rat pharmacokinetics of FK228
Type: in vivo
Settings: male, Sprague-Dawley, plasma, iv, I.v. bolus with DEM pretreatment (n = 5), called C0 in text
propertyLabel: Cmax (nM)
# value in nM; strip the unit string

### Prompt Which measured Cmax value corresponds to C/C=C1\NC(=O)[C@H]2CSSCC/C=C/[C@H](CC(=O)N[C@H](C(C)C)C(=O)N2)OC(=O)[C@H](C(C)C)NC1=O [FK228] ?
### Response 1180

---

Test: Rat pharmacokinetics of FK228
Type: in vivo
Conditions: male, Sprague-Dawley, plasma, iv, I.v. bolus with DEM pretreatment (n = 5)
Procedure: Pharmacokinetics and tissue distribution studies in the rat Twenty-three male S.D. rates weighing 250-300 g were divided into 5 groups. […] At the time schedule of predose, 5, 10, 20, […], 60, 120, 180, 300 minutes after doing, blood samples of 0.2 mL each were withdrawn from the same cannula with an equal volume of normal saline. […] The homogenates were then extracted and determined as in plasma samples (Chan, et al. 1997; Li and Chan, 2000). […]
propertyLabel: MRT (min)
# value in min; strip the unit string

### Prompt Which measured MRT value corresponds to C/C=C1\NC(=O)[C@H]2CSSCC/C=C/[C@H](CC(=O)N[C@H](C(C)C)C(=O)N2)OC(=O)[C@H](C(C)C)NC1=O [FK228] ?
### Response 30

---

Experiment: Rat pharmacokinetics of FK228
Format: in vivo
Conditions: male, Sprague-Dawley, plasma, iv, I.v. infusion (n = 6)
propertyLabel: AUC(0-inf) (µM·h)
# value in µM·h; strip the unit string

### Prompt Which measured AUC(0-inf) value corresponds to C/C=C1\NC(=O)[C@H]2CSSCC/C=C/[C@H](CC(=O)N[C@H](C(C)C)C(=O)N2)OC(=O)[C@H](C(C)C)NC1=O ?
### Response 0.103

---

Experiment: Rat pharmacokinetics of FK228
Type: in vivo
Settings: male, Sprague-Dawley, plasma, iv, 2 mg/kg, I.v. infusion (n = 6)
propertyLabel: Cmax (nM)
# value in nM; strip the unit string

### Prompt Which measured Cmax value corresponds to C/C=C1\NC(=O)[C@H]2CSSCC/C=C/[C@H](CC(=O)N[C@H](C(C)C)C(=O)N2)OC(=O)[C@H](C(C)C)NC1=O [FK228] ?
### Response 25.3
